# System: HCT 116
# PROCEDURE SUMMARY: SRB cell proliferation assay, HCT 116
# Format: cell-based
# CONDITION LABEL: Homo sapiens, HCT-116; 72 hours, SRB assay; read-out: CELLULAR IC50 HCT 116
pIC50: −log10 of the molar value.

[
  {
    "MOLECULE": "CCC1C(=O)N(C)c2cnc(Nc3ccc(C(=O)NCc4ccc(N5CCN(C)CC5)cc4)cc3OC)nc2N1N(C)C (stereo not shown)",
    "pIC50": "> 6.00"
  }
]

---

# Test system: IMR-90
# PROCEDURE SUMMARY: SRB cell proliferation assay, IMR-90
# Format: cell-based
# CONDITION LABEL: Homo sapiens, 72 hours, SRB assay, slow cycling cell line, read-out: CELLULAR IC50 IMR-90
EXPERIMENTAL READOUT: IC50

[
  {
    "MOLECULE": "CCC1C(=O)N(C)c2cnc(Nc3ccc(C(=O)NC4CCN(C)CC4)cc3OC)nc2N1N(C)C (single isomer, unassigned) [Compound 36]",
    "RESULT VALUE": "> 1000 nM"
  },
  {
    "MOLECULE": "CCC1C(=O)N(C)c2cnc(Nc3ccc(C(=O)NCC4CCN(CC)CC4)cc3OC)nc2N1N(C)CC1CCC1 (stereo not drawn)",
    "RESULT VALUE": "> 1000 nM"
  },
  {
    "MOLECULE": "CCC1C(=O)N(C)c2cnc(Nc3ccc(C(=O)N[C@H]4CC[C@H](N5CCN(CC6CC6)CC5)CC4)cc3OC)nc2N1N(C)Cc1ccccc1 (relative stereo)",
    "RESULT VALUE": "> 1000 nM"
  }
]

---

# ASSAYED SYSTEM: Plk1 (Homo sapiens, UniProt P53350)
# Sequence (P53350 whole entry, species assumed): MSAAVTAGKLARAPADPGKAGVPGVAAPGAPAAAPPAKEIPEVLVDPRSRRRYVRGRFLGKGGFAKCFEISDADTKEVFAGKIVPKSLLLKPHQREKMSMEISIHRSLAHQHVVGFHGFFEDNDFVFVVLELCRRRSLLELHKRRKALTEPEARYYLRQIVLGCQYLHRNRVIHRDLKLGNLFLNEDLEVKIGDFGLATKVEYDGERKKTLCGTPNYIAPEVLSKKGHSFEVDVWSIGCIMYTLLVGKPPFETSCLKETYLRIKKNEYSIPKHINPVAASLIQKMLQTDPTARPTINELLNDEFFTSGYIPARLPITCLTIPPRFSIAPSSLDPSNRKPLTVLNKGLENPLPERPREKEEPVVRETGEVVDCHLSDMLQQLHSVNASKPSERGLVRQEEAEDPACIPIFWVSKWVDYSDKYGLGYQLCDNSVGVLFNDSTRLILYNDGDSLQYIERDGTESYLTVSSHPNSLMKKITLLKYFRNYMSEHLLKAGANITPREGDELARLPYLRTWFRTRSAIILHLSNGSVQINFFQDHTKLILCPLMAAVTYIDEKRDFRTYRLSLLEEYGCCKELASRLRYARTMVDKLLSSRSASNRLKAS
# PROCEDURE SUMMARY: Cellular Plk1 kinase activity: nucleophosmin (B23) Ser4 phosphorylation in HCT116 cells (MSD electrochemiluminescence)
# Type: cell-based
# Set-up: host or cells: HCT116
# CONDITION LABEL: 100 ng/ml nocodazole, 4 hours after compound addition, read-out: Biochemical IC50 Nucleophosmin assay
Form field: IC50 (one value per entry).

[
  {
    "COMPOUND": "CCC1C(=O)N(C)c2cnc(Nc3ccc(C(=O)NCC4CCN(CC)CC4)cc3OC)nc2N1N(C)CC(C)C (centres unmarked) [Compound 23]",
    "IC50": "< 100 nM"
  },
  {
    "COMPOUND": "CCC1C(=O)N(C)c2cnc(Nc3ccc(C(=O)NC4CCN(C)CC4)cc3OC)nc2N1N(C)CC1CCC1 (centres unmarked) [Compound 33]",
    "IC50": "< 100 nM"
  },
  {
    "COMPOUND": "CCC1C(=O)N(C)c2cnc(Nc3ccc(C(=O)N[C@H]4CC[C@H](N5CCN(CC6CC6)CC5)CC4)cc3OC)nc2N1N(C)C (relative stereo) [Compound 13]",
    "IC50": "< 100 nM"
  },
  {
    "COMPOUND": "CCC1C(=O)N(C)c2cnc(Nc3ccc(C(=O)NC4CCN(C5CCN(Cc6ccccc6)CC5)CC4)cc3OC)nc2N1N(C)C (centres unmarked) [Compound 14]",
    "IC50": "< 100 nM"
  },
  {
    "COMPOUND": "CCC1C(=O)N(C)c2cnc(Nc3ccc(C(=O)NC4CCN(C)CC4)cc3OC)nc2N1N(C)CC(C)C (centres unmarked) [Compound 22]",
    "IC50": "< 100 nM"
  },
  {
    "COMPOUND": "CCC1C(=O)N(C)c2cnc(Nc3ccc(C(=O)NC4CCN(C)CC4)cc3OC)nc2N1N(C)C (racemic) [Compound 1]",
    "IC50": "< 100 nM"
  },
  {
    "COMPOUND": "CCC1C(=O)N(C)c2cnc(Nc3ccc(C(=O)NCC4CCN(Cc5ccccc5)CC4)cc3OC)nc2N1N(C)C (centres unmarked) [Compound 12]",
    "IC50": "< 100 nM"
  },
  {
    "COMPOUND": "CCC1C(=O)N(C)c2cnc(Nc3ccc(C(=O)NC4CCN(C)CC4)cc3OC)nc2N1N(C)C (single isomer, unassigned) [Compound 37]",
    "IC50": "< 100 nM"
  },
  {
    "COMPOUND": "CCC1C(=O)N(C)c2cnc(Nc3ccc(C(=O)NCC4CCN(CC)CC4)cc3OC)nc2N1NC (centres unmarked) [Compound 32]",
    "IC50": "< 500 nM"
  },
  {
    "COMPOUND": "CCC1C(=O)N(C)c2cnc(Nc3ccc(C(=O)NC4CCN(C)CC4)cc3OC)nc2N1N(C)Cc1ccccc1 (centres unmarked) [Compound 15]",
    "IC50": "< 100 nM"
  },
  {
    "COMPOUND": "CCC1C(=O)N(C)c2cnc(Nc3ccc(C(=O)NCC4CCN(CC)CC4)cc3OC)nc2N1N(C)Cc1ccccc1 (centres unmarked) [Compound 21]",
    "IC50": "< 500 nM"
  },
  {
    "COMPOUND": "CCC1C(=O)N(C)c2cnc(Nc3ccc(C(=O)N[C@H]4CC[C@H](N5CCN(CC6CC6)CC5)CC4)cc3OC)nc2N1N(C)CC(C)C (relative stereo) [Compound 24]",
    "IC50": "< 100 nM"
  },
  {
    "COMPOUND": "CCC1C(=O)N(C)c2cnc(Nc3ccc(C(=O)NC4CCN(C)CC4)cc3OC)nc2N1N(C)CC1CCCC1 (centres unmarked) [Compound 27]",
    "IC50": "< 100 nM"
  },
  {
    "COMPOUND": "CCC1C(=O)N(C)c2cnc(Nc3ccc(C(=O)NCC4CCN(CC)CC4)cc3OC)nc2N1N(C)C (centres unmarked) [Compound 3]",
    "IC50": "< 100 nM"
  },
  {
    "COMPOUND": "CCC1C(=O)N(C)c2cnc(Nc3ccc(C(=O)N[C@H]4CC[C@H](N5CCN(CC6CC6)CC5)CC4)cc3OC)nc2N1N(C)CC1CCCC1 (relative stereo) [Compound 28]",
    "IC50": "< 100 nM"
  },
  {
    "COMPOUND": "CCC1C(=O)N(C)c2cnc(Nc3ccc(C(=O)N[C@H]4CC[C@H](N5CCN(CC6CC6)CC5)CC4)cc3OC)nc2N1N(C)Cc1ccccc1 (relative stereo) [Compound 16]",
    "IC50": "< 100 nM"
  },
  {
    "COMPOUND": "CCCN(C)N1c2nc(Nc3ccc(C(=O)N[C@H]4CC[C@H](N5CCN(CC6CC6)CC5)CC4)cc3OC)ncc2N(C)C(=O)C1CC (relative stereo) [Compound 19]",
    "IC50": "< 100 nM"
  },
  {
    "COMPOUND": "CCC1C(=O)N(C)c2cnc(Nc3ccc(C(=O)NC4CCN(C)CC4)cc3OC)nc2N1N(C)CC (centres unmarked) [Compound 25]",
    "IC50": "< 100 nM"
  },
  {
    "COMPOUND": "CCC1C(=O)N(C)c2cnc(Nc3ccc(C(=O)NCc4ccc(N5CCN(C)CC5)cc4)cc3OC)nc2N1N(C)C (centres unmarked) [Compound 11]",
    "IC50": "< 100 nM"
  },
  {
    "COMPOUND": "CCC1C(=O)N(C)c2cnc(Nc3ccc(C(=O)NC4CCN(C(C)C)CC4)cc3OC)nc2N1N(C)C (centres unmarked) [Compound 4]",
    "IC50": "< 100 nM"
  },
  {
    "COMPOUND": "CCC1C(=O)N(C)c2cnc(Nc3ccc(C(=O)NC4CCN(C)CC4)cc3OC)nc2N1NC (centres unmarked) [Compound 30]",
    "IC50": "< 100 nM"
  },
  {
    "COMPOUND": "CCC1C(=O)N(C)c2cnc(Nc3ccc(C(=O)NCCN4CCCC4)cc3OC)nc2N1N(C)C (centres unmarked) [Compound 2]",
    "IC50": "< 100 nM"
  },
  {
    "COMPOUND": "CCC1C(=O)N(C)c2cnc(Nc3ccc(C(=O)N[C@H]4CC[C@H](N5CCN(CC6CC6)CC5)CC4)cc3OC)nc2N1N(C)CC1CC1 (relative stereo) [Compound 18]",
    "IC50": "< 500 nM"
  },
  {
    "COMPOUND": "CCC1C(=O)N(C)c2cnc(Nc3ccc(C(=O)NC4CCN(C)CC4)cc3OC)nc2N1N(C)CC1CC1 (centres unmarked) [Compound 17]",
    "IC50": "< 500 nM"
  },
  {
    "COMPOUND": "CCCN(C)N1c2nc(Nc3ccc(C(=O)NC4CCN(C)CC4)cc3OC)ncc2N(C)C(=O)C1CC (centres unmarked) [Compound 20]",
    "IC50": "< 100 nM"
  },
  {
    "COMPOUND": "CCC1C(=O)N(C)c2cnc(Nc3ccc(C(=O)N[C@H]4CC[C@H](N5CCN(CC6CC6)CC5)CC4)cc3OC)nc2N1NC (relative stereo) [Compound 31]",
    "IC50": "< 100 nM"
  }
]
